Details: Ebola virus entry assay, green fluorescence channel; note: 0% is about no effect
Measured potencies and affinities stand elsewhere.
For each record, write down the corresponding efficacy.
Give bare numbers, in %.

As a guide, the following entries are already answered.
compound=CCCc1ncc(C[n+]2ccccc2C)c(N)n1 measurement=-20.5
compound=CCCCCN=C(N)N/N=C/c1c[nH]c2ccc(OC)cc12 measurement=-150
compound=COc1cc(N)c(Cl)cc1C(=O)NC1CCN(Cc2ccccc2)CC1 measurement=43.1
compound=CN1CCN(c2cc3c(cc2F)c(=O)c(C(=O)O)cn3-c2ccc(F)cc2)CC1 measurement=8.5

# next compound below
I have this compound here, Cc1ccc(Cl)c(OCC(O)CNC(C)(C)C)c1 (stereo not given) , and I need its recorded efficacy.
-22.3
